test system: A. baumannii SI-310 (OXA-24); conditions: colistin-resistant isolate; MHB, 5 × 10^5 CFU/mL, 18 h, 35 °C, triplicate
Non-standard residues stand in square brackets, D forms with d. Residues, ends and D or L forms follow the SMILES beside them. *: point of attachment. Leu(ol) = CC(C)C[C@H](N)CO; Octanoyl = CCCCCCCC(=O)*; Aib = CC(C)(N)C(=O)O
Assay metric: MBC A. baumannii SI-310 (OXA-24) (µg/mL)
Answers are plain numbers, in µg/mL.

Study these solved cases before continuing.
CCCCCCCC(=O)NC(C)(C)C(=O)NCC(=O)N[C@@H](CC(C)C)C(=O)NC(C)(C)C(=O)NCC(=O)N[C@@H](CCCCN)C(=O)N[C@@H](CC(C)C)C(=O)NC(C)(C)C(=O)NCC(=O)N[C@H](C(=O)N[C@H](CO)CC(C)C)[C@@H](C)CC [Peptide 10] | 16
CCCCCCCC(=O)NC(C)(C)C(=O)NCC(=O)N[C@@H](CC(C)C)C(=O)NC(C)(C)C(=O)NCC(=O)NCC(=O)N[C@@H](CC(C)C)C(=O)NC(C)(C)C(=O)N[C@@H](CCCCN)C(=O)N[C@H](C(=O)N[C@H](CO)CC(C)C)[C@@H](C)CC [Peptide 9] (Octanoyl-[Aib]GL[Aib]GGL[Aib]KI[Leu(ol)]) | 32
CCCCCCCC(=O)NC(C)(C)C(=O)N[C@@H](CCCCN)C(=O)N[C@@H](CC(C)C)C(=O)NC(C)(C)C(=O)N[C@@H](CCCCN)C(=O)N[C@@H](CCCCN)C(=O)N[C@@H](CC(C)C)C(=O)NC(C)(C)C(=O)N[C@@H](CCCCN)C(=O)N[C@H](C(=O)N[C@H](CO)CC(C)C)[C@@H](C)CC [Peptide 7] (Octanoyl-[Aib]KL[Aib]KKL[Aib]KI[Leu(ol)]) | 4

As a next step, examine the compound that follows.
Q. Answer with the recorded MBC A. baumannii SI-310 (OXA-24) of CCCCCCCC(=O)NC(C)(C)C(=O)N[C@@H](CCCCN)C(=O)N[C@@H](CC(C)C)C(=O)NC(C)(C)C(=O)N[C@@H](CCCCN)C(=O)N[C@@H](CCCCN)C(=O)N[C@@H](CC(C)C)C(=O)NC(C)(C)C(=O)NCC(=O)N[C@H](C(=O)N[C@@H](CC(C)C)C(N)=O)[C@@H](C)CC [Peptide 11] (Octanoyl-[Aib]KL[Aib]KKL[Aib]GIL-NH2) only.
A. 4
